systemName: Anti-CD28 Fab (SEQ ID NOs: 202, 203)
Sequence (VH, as listed by the source, chain 1 of 2): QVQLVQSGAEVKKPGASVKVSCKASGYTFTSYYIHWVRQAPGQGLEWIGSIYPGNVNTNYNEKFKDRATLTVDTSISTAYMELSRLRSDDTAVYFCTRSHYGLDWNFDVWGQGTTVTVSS
Sequence (VL, as listed by the source, chain 2 of 2): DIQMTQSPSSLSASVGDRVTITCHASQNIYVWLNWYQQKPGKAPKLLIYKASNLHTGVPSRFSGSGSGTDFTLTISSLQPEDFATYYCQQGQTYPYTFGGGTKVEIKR
testSummary: phage binding ELISA on captured Fab;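 also: clonal phage supernatants added briefly to wells pre-incubated with CD28 antigen or with blocking buffer only, then washed, bound phage read by ELISA using HRP-coupled anti-M13 antibody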
assayMetric: Anti-CD28 Fab (SEQ ID NOs: 202, 203) signal

[
  {
    "binder": "YCDGHLPEYMLKCL [Phage-780]",
    "valueReported": 0.96
  },
  {
    "binder": "YCDGHLETYMQKCL [Phage-865]",
    "valueReported": 0.53
  },
  {
    "binder": "YCEGHMSEYMRKCL [Phage-841]",
    "valueReported": 0.69
  },
  {
    "binder": "YCSGHSWAYIGKCL [Phage-775]",
    "valueReported": 0.98
  },
  {
    "binder": "YCAGHSQVYMWKCL [Phage-761]",
    "valueReported": 1.02
  },
  {
    "binder": "YCQGHLPIYIQKCL [Phage-866]",
    "valueReported": 0.51
  },
  {
    "binder": "YCAGHSLQYLGKCY [Phage-813]",
    "valueReported": 0.86
  },
  {
    "binder": "YCDGHMDAYMSKCL [Phage-847]",
    "valueReported": 0.65
  },
  {
    "binder": "YCEGHLPQYLAKCY [Phage-844]",
    "valueReported": 0.67
  },
  {
    "binder": "YCDGHTEAYMSKCL [Phage-807]",
    "valueReported": 0.88
  },
  {
    "binder": "YCDGHIMPYLDKCL [Phage-862]",
    "valueReported": 0.57
  },
  {
    "binder": "YCMGHSAEYMGKCL [Phage-848]",
    "valueReported": 0.64
  },
  {
    "binder": "YCAGHAEIYMQKCL [Phage-789]",
    "valueReported": 0.93
  },
  {
    "binder": "YCEGHAPVYMQKCL [Phage-878]",
    "valueReported": 0.44
  },
  {
    "binder": "YCEGHRPEYMANCL [Phage-768]",
    "valueReported": 1
  },
  {
    "binder": "YCEGHTQAYLAKCL [Phage-792]",
    "valueReported": 0.93
  }
]
